tested on: PR8 strain of H1N1 modified to express GFP; test: microbe, parasite or virus in culture; type: cell-based, influenza H1N1 (in human distal lung organoids); conditions: Influenza A virus; read-out: IC50 on influenza infectivity and replication (dose response curve)
Observation Type: IC50 (nM)

query_smiles=Nc1ccn([C@@H]2O[C@H](CO)[C@@H](O)[C@H]2F)c(=O)n1 observation_type=IC50 measurement_units=nM obs_value=340
